Each recorded value in this set is attributed to ChEMBL document CHEMBL5154807.

experimental_system: Proto-oncogene tyrosine-protein kinase receptor Ret (Homo sapiens)
assay_text: Inhibition of human RET kinase using IGF1Rtide as substrate incubated for 40 mins and measured by ADP-Glo assay
pIC50: −log10 of the molar value.
Threshold check on pIC50: at or above 6 gives 1 (yes), strictly below gives 0 (no).

CN1CCN(Cc2ccc(NC(=O)c3cccc(/N=N/c4cnc5[nH]ccc5c4)c3)cc2C(F)(F)F)CC1 ... 1 (yes)
CC(C)c1cccc2cc(/C=C\c3cccc(C(=O)Nc4ccc(CN5CCN(C)CC5)c(C(F)(F)F)c4)c3)cnc12 ... 0 (no)
CN1CCN(Cc2ccc(NC(=O)c3cccc(/C=C/c4cnc5ccccc5c4Nc4ccccc4)c3)cc2C(F)(F)F)CC1 ... 0 (no)
CN1CCN(Cc2ccc(NC(=O)c3cccc(/N=N\c4cnc5ccccc5c4)c3)cc2C(F)(F)F)CC1 ... 1 (yes)
CC(C)n1nc(-c2ccc(NC(=O)Nc3cc(C(F)(F)F)ccc3F)cc2)c2c(N)ncnc21 ... 1 (yes)
CCc1cccc2cc(/C=C/c3cccc(C(=O)Nc4ccc(CN5CCN(C)CC5)c(C(F)(F)F)c4)c3)cnc12 ... 0 (no)
CC(C)c1cccc2cc(/C=C/c3cccc(C(=O)Nc4ccc(CN5CCN(C)CC5)c(C(F)(F)F)c4)c3)cnc12 ... 0 (no)
CCc1cccc2cc(/C=C\c3cccc(C(=O)Nc4ccc(CN5CCN(C)CC5)c(C(F)(F)F)c4)c3)cnc12 ... 0 (no)

Input line: Form field: pIC50 at least 6? Entry: COc1c(/N=N/c2cccc(C(=O)Nc3ccc(CN4CCN(C)CC4)c(C(F)(F)F)c3)c2)cnc2ccccc12
Output line: 1 (yes)

Input line: Form field: pIC50 at least 6? Entry: CN1CCN(Cc2ccc(NC(=O)c3cccc(/C=C\c4cnc5ccccc5c4N4CCCC4)c3)cc2C(F)(F)F)CC1
Output line: 0 (no)

---

Below is a list of entries, each paired with its recorded pIC50 value.
experimental_system: Proto-oncogene tyrosine-protein kinase receptor Ret (Homo sapiens)
assay_text: Inhibition of full-length RET kinase expressed in human HEK293 cells and measured by NanoBRET assay
Assay type: cell-based
# log scale: pIC50 equals minus log10 of the concentration in mol/L

COc1c(/N=N\c2cccc(C(=O)Nc3ccc(CN4CCN(C)CC4)c(C(F)(F)F)c3)c2)cnc2ccccc12 ... 5.41

Input line: Return the recorded pIC50 value; entry: COc1c(/N=N/c2cccc(C(=O)Nc3ccc(CN4CCN(C)CC4)c(C(F)(F)F)c3)c2)cnc2ccccc12
Output line: 6.04

---

Below is a list of entries, each paired with its recorded IC50 value.
experimental_system: Proto-oncogene tyrosine-protein kinase receptor Ret (Homo sapiens, UniProt P07949)
Sequence (P07949 whole entry): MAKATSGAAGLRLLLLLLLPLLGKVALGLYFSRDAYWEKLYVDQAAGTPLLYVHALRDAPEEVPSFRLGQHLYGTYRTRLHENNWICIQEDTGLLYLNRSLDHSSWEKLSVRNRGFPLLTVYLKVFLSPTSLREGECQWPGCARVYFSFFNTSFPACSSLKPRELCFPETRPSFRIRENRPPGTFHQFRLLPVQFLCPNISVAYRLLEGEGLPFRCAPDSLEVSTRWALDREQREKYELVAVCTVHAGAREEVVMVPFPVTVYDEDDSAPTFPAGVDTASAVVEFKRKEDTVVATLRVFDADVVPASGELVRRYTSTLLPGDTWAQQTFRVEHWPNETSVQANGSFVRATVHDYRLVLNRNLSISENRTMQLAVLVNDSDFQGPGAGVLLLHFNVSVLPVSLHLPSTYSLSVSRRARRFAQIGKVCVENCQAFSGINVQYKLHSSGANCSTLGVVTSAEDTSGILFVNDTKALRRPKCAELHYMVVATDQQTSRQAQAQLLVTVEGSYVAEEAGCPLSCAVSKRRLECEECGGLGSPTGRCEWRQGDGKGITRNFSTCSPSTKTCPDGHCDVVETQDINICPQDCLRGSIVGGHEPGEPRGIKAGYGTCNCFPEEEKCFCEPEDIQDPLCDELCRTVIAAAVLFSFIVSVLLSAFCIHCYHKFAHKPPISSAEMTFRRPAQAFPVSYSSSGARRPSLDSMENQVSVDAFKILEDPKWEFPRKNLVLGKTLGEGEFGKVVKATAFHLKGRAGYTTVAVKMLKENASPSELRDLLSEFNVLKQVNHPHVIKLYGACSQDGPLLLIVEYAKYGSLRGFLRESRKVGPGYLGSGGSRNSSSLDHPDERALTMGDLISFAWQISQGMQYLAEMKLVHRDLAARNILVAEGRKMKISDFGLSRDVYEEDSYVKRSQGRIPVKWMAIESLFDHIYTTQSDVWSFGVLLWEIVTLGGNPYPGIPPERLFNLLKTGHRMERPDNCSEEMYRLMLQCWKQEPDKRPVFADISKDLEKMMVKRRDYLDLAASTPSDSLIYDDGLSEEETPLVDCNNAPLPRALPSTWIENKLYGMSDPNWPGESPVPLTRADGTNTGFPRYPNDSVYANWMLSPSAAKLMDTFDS
assay_text: Inhibition of human RET kinase using IGF1Rtide as substrate incubated for 40 mins and measured by ADP-Glo assay

These solved cases illustrate the format of a correct answer.
COc1c(/C=C\c2cccc(C(=O)Nc3ccc(CN4CCN(C)CC4)c(C(F)(F)F)c3)c2)cnc2ccccc12 ... 1800 nM
Cc1cccc2cc(/C=C\c3cccc(C(=O)Nc4ccc(CN5CCN(C)CC5)c(C(F)(F)F)c4)c3)cnc12 ... 12600 nM
COc1c(/C=C/c2cccc(C(=O)Nc3ccc(CN4CCN(C)CC4)c(C(F)(F)F)c3)c2)cnc2ccccc12 ... 12.4 nM

Input line: Return the recorded IC50 value; entry: CCCc1cccc2cc(/C=C\c3cccc(C(=O)Nc4ccc(CN5CCN(C)CC5)c(C(F)(F)F)c4)c3)cnc12
Output line: > 500000 nM

Input line: Return the recorded IC50 value; entry: CN1CCN(Cc2ccc(NC(=O)c3cccc(/C=C\c4cnc5ccccc5c4Nc4ccccc4)c3)cc2C(F)(F)F)CC1
Output line: 49000 nM

Input line: Return the recorded IC50 value; entry: CN1CCN(Cc2ccc(NC(=O)c3cccc(/C=C\c4cnc5ccccc5c4N(C)C)c3)cc2C(F)(F)F)CC1
Output line: 2400 nM

Input line: Return the recorded IC50 value; entry: CN1CCN(Cc2ccc(NC(=O)c3ccc(F)c(/N=N\c4cnc5ccccc5c4)c3F)cc2C(F)(F)F)CC1
Output line: 17 nM

Input line: Return the recorded IC50 value; entry: CN1CCN(Cc2ccc(NC(=O)c3cccc(/C=C\c4cnc5ccccc5c4)c3)cc2C(F)(F)F)CC1
Output line: 900 nM

---

assay_text: Thermal stability of compound in water assessed as half-life
Assay type: physicochemical
measurement_name: half-life (h)
Field: numeric (h). Do not append units.

These solved cases illustrate the format of a correct answer.
CN1CCN(Cc2ccc(NC(=O)c3ccc(F)c(/N=N/c4cnc5ccccc5c4)c3F)cc2C(F)(F)F)CC1 ... 38
CN1CCN(Cc2ccc(NC(=O)c3cccc(/N=N/c4cnc5ccccc5c4)c3)cc2C(F)(F)F)CC1 ... 217
CN1CCN(Cc2ccc(NC(=O)c3cccc(/N=N/c4cnc5[nH]ccc5c4)c3)cc2C(F)(F)F)CC1 ... 629

Input line: Return the recorded half-life value; entry: CN1CCN(Cc2ccc(NC(=O)c3ccc(F)c(/N=N\c4cnc5ccccc5c4)c3F)cc2C(F)(F)F)CC1
Output line: 38

Input line: Return the recorded half-life value; entry: COc1c(/N=N/c2cccc(C(=O)Nc3ccc(CN4CCN(C)CC4)c(C(F)(F)F)c3)c2)cnc2ccccc12
Output line: 402

---

experimental_system: Proto-oncogene tyrosine-protein kinase receptor Ret (Homo sapiens)
assay_text: Inhibition of human RET kinase using IGF1Rtide as substrate incubated for 40 mins and measured by ADP-Glo assay
Below is a list of entries, each paired with its recorded pIC50 value.
# log scale: pIC50 equals minus log10 of the concentration in mol/L

CN1CCN(Cc2ccc(NC(=O)c3cccc(/C=C/c4cnc5ccccc5c4)c3)cc2C(F)(F)F)CC1 ... 8.11
CCCc1cccc2cc(/C=C/c3cccc(C(=O)Nc4ccc(CN5CCN(C)CC5)c(C(F)(F)F)c4)c3)cnc12 ... 5.25
CN1CCN(Cc2ccc(NC(=O)c3cccc(/N=N/c4cnc5ccccc5c4)c3)cc2C(F)(F)F)CC1 ... 8.02
CN1CCN(Cc2ccc(NC(=O)c3ccc(F)c(/N=N/c4cnc5ccccc5c4)c3F)cc2C(F)(F)F)CC1 ... 7.96
CN1CCN(Cc2ccc(NC(=O)c3cccc(/C=C/c4cnc5ccccc5c4N4CCCC4)c3)cc2C(F)(F)F)CC1 ... 7.18

Input line: Return the recorded pIC50 value; entry: Cc1cccc2cc(/C=C/c3cccc(C(=O)Nc4ccc(CN5CCN(C)CC5)c(C(F)(F)F)c4)c3)cnc12
Output line: 6.59

Input line: Return the recorded pIC50 value; entry: COc1c(/N=N\c2cccc(C(=O)Nc3ccc(CN4CCN(C)CC4)c(C(F)(F)F)c3)c2)cnc2ccccc12
Output line: 6.44

Input line: Return the recorded pIC50 value; entry: CN1CCN(Cc2ccc(NC(=O)c3cccc(/C=C/c4cnc5ccccc5c4N(C)C)c3)cc2C(F)(F)F)CC1
Output line: 7.01

---

Below is a list of entries, each paired with its recorded half-life value.
assay_text: Thermal stability of compound in DMSO assessed as half-life
Assay type: physicochemical
Field: numeric (days). Do not append units.

CN1CCN(Cc2ccc(NC(=O)c3cccc(/N=N/c4cnc5ccccc5c4)c3)cc2C(F)(F)F)CC1 ... 8.67
COc1c(/N=N/c2cccc(C(=O)Nc3ccc(CN4CCN(C)CC4)c(C(F)(F)F)c3)c2)cnc2ccccc12 ... 12.6
CN1CCN(Cc2ccc(NC(=O)c3cccc(/N=N/c4cnc5[nH]ccc5c4)c3)cc2C(F)(F)F)CC1 ... 15.7

Input line: Return the recorded half-life value; entry: CN1CCN(Cc2ccc(NC(=O)c3ccc(F)c(/N=N/c4cnc5ccccc5c4)c3F)cc2C(F)(F)F)CC1
Output line: 32.5
